# study.target: rat cortical A1 receptors (Rattus norvegicus)
# Construct: rat cortical membranes were the receptor source; from tissue; host or cells: rat cerebral cortex (male Sprague Dawley) membranes
# Sequence (P25099 1-326): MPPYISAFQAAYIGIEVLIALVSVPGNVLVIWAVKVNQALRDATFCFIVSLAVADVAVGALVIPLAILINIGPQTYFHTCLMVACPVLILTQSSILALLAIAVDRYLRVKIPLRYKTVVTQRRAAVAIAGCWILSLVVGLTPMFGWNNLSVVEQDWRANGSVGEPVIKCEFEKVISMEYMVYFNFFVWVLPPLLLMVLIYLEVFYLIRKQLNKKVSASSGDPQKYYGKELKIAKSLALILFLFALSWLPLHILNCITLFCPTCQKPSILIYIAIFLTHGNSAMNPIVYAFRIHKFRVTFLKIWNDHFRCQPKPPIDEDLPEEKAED
# test.description: displacement of [3H]-CHA from rat cortical A1 receptors
# Format: binding
# condition.parameters: [3H]-CHA; rat cortical A1 receptors; read-out: Rat Cortical Binding Constant Ki
recorded.endpoint: Ki (nM)
Number in nM, nothing else.

Below, 3 molecules whose answers are already recorded.
molecule | Ki [nM]
Cn1cnc2c(N[C@H]3C[C@H]4CC[C@@H]3C4)nc(O)nc21 (relative stereo) [compound 1063, N^6-(Endo-2-norbornyl)-2-oxo-9-MA] | 1120
Cn1c(S)nc2c(N[C@H]3C[C@H]4CC[C@@H]3C4)ncnc21 (relative stereo) [compound 1060, N^6-(endo-2-norbornyl)-8-thio-9-MA] | 370
Cn1c(NC2CCCC2)nc2c(N[C@H]3C[C@H]4CC[C@@H]3C4)ncnc21 (relative stereo) [compound 1064] | 1900

Ask | What Ki value was documented for this molecule, Cn1cnc2c(N[C@H]3C[C@H]4CC[C@@H]3C4)nc(Cl)nc21 (relative stereo) [compound 0913, N^6-(endo-2-norbornyl)-2-chloro-9-MA] ?
Reply | 105
